- TESTED_TARGET: HLA-A*6802 (Homo sapiens, UniProt P04439, A269V/D140Y/D185E/E176V/E277Q/E87N/F33Y/G231S/I121R/I166T/I218V/L180W/L300P/L318F/N151K/P208A/P217A/Q86R/R138H/R169H/S129P/T345S/V36M)
- PROCEDURE_DETAILS: MHC-peptide binding assay
Residues, ends and D or L forms follow the SMILES beside them.
Here the recorded IC50 is given for each entry.
The answer is to be given in nM; state only the numeric part.

CC[C@H](C)[C@H](NC(=O)[C@H](Cc1ccc(O)cc1)NC(=O)[C@H](CC(=O)O)NC(=O)[C@@H](NC(=O)[C@H](CC(C)C)NC(=O)[C@@H](N)Cc1ccccc1)[C@@H](C)O)C(=O)N1CCC[C@H]1C(=O)NCC(=O)N[C@@H](C)C(=O)O [SAG3_136–144] (H-FLTDYIPGA-OH): 2100

Returns the measured IC50 for the input compound. Input: CC(C)C[C@H](NC(=O)CN)C(=O)N[C@@H](C)C(=O)N[C@@H](C)C(=O)N[C@@H](C)C(=O)N[C@H](C(=O)N[C@H](C(=O)N[C@@H](C)C(=O)N[C@H](C(=O)O)C(C)C)C(C)C)C(C)C [SPA82–90] (H-GLAAAVVAV-OH)
263

Returns the measured IC50 for the input compound. Input: CC[C@H](C)[C@H](NC(=O)[C@@H](NC(=O)[C@@H](N)Cc1ccccc1)C(C)C)C(=O)N[C@@H](Cc1ccccc1)C(=O)N[C@@H](C)C(=O)N[C@@H](CS)C(=O)N[C@@H](CC(N)=O)C(=O)N[C@@H](Cc1ccccc1)C(=O)N[C@H](C(=O)O)C(C)C [SAG2X44–52] (H-FVIFACNFV-OH)
1.2

Returns the measured IC50 for the input compound. Input: CC[C@H](C)[C@H](N)C(=O)N[C@H](C(=O)N[C@@H](CCSC)C(=O)NCC(=O)N[C@@H](CO)C(=O)N[C@@H](CC(C)C)C(=O)N[C@@H](Cc1ccccc1)C(=O)N[C@@H](Cc1ccccc1)C(=O)N[C@H](C(=O)O)C(C)C)[C@@H](C)O [SPA12–20] (H-ITMGSLFFV-OH)
1.1

Returns the measured IC50 for the input compound. Input: CC[C@H](C)[C@H](NC(=O)[C@@H](NC(=O)[C@H](CC(C)C)NC(=O)[C@H](CC(C)C)NC(=O)[C@H](CO)NC(=O)[C@H](CC(C)C)NC(=O)[C@H](CO)NC(=O)[C@H](CC(C)C)NC(=O)[C@@H](N)Cc1ccccc1)C(C)C)C(=O)O [SAG2C38–46] (H-FLSLSLLVI-OH)
9830

* * *

- TESTED_TARGET: HLA-A*6802 (Homo sapiens, UniProt P04439, A269V/D140Y/D185E/E176V/E277Q/E87N/F33Y/G231S/I121R/I166T/I218V/L180W/L300P/L318F/N151K/P208A/P217A/Q86R/R138H/R169H/S129P/T345S/V36M)
- PROCEDURE_DETAILS: MHC-peptide binding assay
Residues, ends and D or L forms follow the SMILES beside them.
PROPERTY: pIC50
Entry type: numeric. Quantity: pIC50, the -log10 of concentration in molar units.

Returns the measured pIC50 for the input molecule. Input: CC[C@H](C)[C@H](NC(=O)[C@H](CCSC)NC(=O)[C@@H](N)Cc1ccccc1)C(=O)N[C@@H](C)C(=O)N[C@@H](Cc1ccccc1)C(=O)N[C@H](C(=O)N[C@@H](CO)C(=O)N[C@@H](CS)C(=O)N[C@@H](Cc1ccccc1)C(=O)N[C@@H](C)C(=O)O)[C@@H](C)CC [SAG2D180–189] (H-FMIAFISCFA-OH)
6.40

* * *

Here the recorded IC50 is given for each entry.
- TESTED_TARGET: HLA-A*0202 (Homo sapiens, UniProt P04439, D140Y/D185E/D98H/E176V/E277Q/G131W/G231S/I119L/I121R/I166T/I218V/L180W/L300P/L318F/N151K/N90K/P208A/P217A/Q67R/Q86G/Q94H/R138H/R169H/T345S)
- PROCEDURE_DETAILS: MHC-peptide binding assay
Residues, ends and D or L forms follow the SMILES beside them.
The answer is to be given in nM; state only the numeric part.

CC[C@H](C)[C@H](NC(=O)[C@H](CCSC)NC(=O)[C@@H](N)Cc1ccccc1)C(=O)N[C@@H](C)C(=O)N[C@@H](Cc1ccccc1)C(=O)N[C@H](C(=O)N[C@@H](CO)C(=O)N[C@@H](CS)C(=O)N[C@@H](Cc1ccccc1)C(=O)N[C@@H](C)C(=O)O)[C@@H](C)CC [SAG2D180–189] (H-FMIAFISCFA-OH): 56

In the following, a different compound is considered.
Returns the measured IC50 for the input compound. Input: CC(C)C[C@H](NC(=O)CNC(=O)[C@H](CC(C)C)NC(=O)[C@H](CC(C)C)NC(=O)[C@@H](N)Cc1ccccc1)C(=O)N[C@@H](CC(C)C)C(=O)N[C@H](C(=O)N[C@@H](Cc1c[nH]cn1)C(=O)N[C@H](C(=O)O)C(C)C)C(C)C [SAG3_375–383] (H-FLLGLLVHV-OH)
37

* * *

- TESTED_TARGET: HLA-A*0206 (Homo sapiens, UniProt P04439, D140Y/D185E/D98H/E176V/E277Q/F33Y/G131W/G231S/I119V/I121R/I166T/I218V/L300P/L318F/N151K/N90K/P208A/P217A/Q86G/Q94H/R138H/R169H/T345S)
- PROCEDURE_DETAILS: MHC-peptide binding assay
Residues, ends and D or L forms follow the SMILES beside them.
PROPERTY: pIC50
Entry type: numeric. Quantity: pIC50, the -log10 of concentration in molar units.

In the examples that follow, each entry is paired with its recorded pIC50.
CC[C@H](C)[C@H](NC(=O)[C@H](CO)NC(=O)[C@@H](NC(=O)[C@@H](NC(=O)[C@H](CCSC)NC(=O)[C@@H](N)Cc1ccccc1)[C@@H](C)CC)C(C)C)C(=O)N[C@@H](CO)C(=O)N[C@@H](CC(C)C)C(=O)N[C@H](C(=O)O)C(C)C [SAG2X351–359] (H-FMIVSISLV-OH): 8.21
CC[C@H](C)[C@H](NC(=O)[C@@H](NC(=O)[C@@H](N)Cc1ccccc1)C(C)C)C(=O)N[C@@H](Cc1ccccc1)C(=O)N[C@@H](C)C(=O)N[C@@H](CS)C(=O)N[C@@H](CC(N)=O)C(=O)N[C@@H](Cc1ccccc1)C(=O)N[C@H](C(=O)O)C(C)C [SAG2X44–52] (H-FVIFACNFV-OH): 8.25
CC(C)C[C@H](NC(=O)CNC(=O)[C@H](CC(C)C)NC(=O)[C@H](CC(C)C)NC(=O)[C@@H](N)Cc1ccccc1)C(=O)N[C@@H](CC(C)C)C(=O)N[C@H](C(=O)N[C@@H](Cc1c[nH]cn1)C(=O)N[C@H](C(=O)O)C(C)C)C(C)C [SAG3_375–383] (H-FLLGLLVHV-OH): 8.00
CC[C@H](C)[C@H](NC(=O)[C@H](Cc1ccc(O)cc1)NC(=O)[C@H](CC(=O)O)NC(=O)[C@@H](NC(=O)[C@H](CC(C)C)NC(=O)[C@@H](N)Cc1ccccc1)[C@@H](C)O)C(=O)N1CCC[C@H]1C(=O)NCC(=O)N[C@@H](C)C(=O)O [SAG3_136–144] (H-FLTDYIPGA-OH): 8.92
CC[C@H](C)[C@H](NC(=O)[C@H](CCSC)NC(=O)[C@@H](N)Cc1ccccc1)C(=O)N[C@@H](C)C(=O)N[C@@H](Cc1ccccc1)C(=O)N[C@H](C(=O)N[C@@H](CO)C(=O)N[C@@H](CS)C(=O)N[C@@H](Cc1ccccc1)C(=O)N[C@@H](C)C(=O)O)[C@@H](C)CC [SAG2D180–189] (H-FMIAFISCFA-OH): 6.95
CC[C@H](C)[C@H](N)C(=O)N[C@H](C(=O)N[C@@H](CCSC)C(=O)NCC(=O)N[C@@H](CO)C(=O)N[C@@H](CC(C)C)C(=O)N[C@@H](Cc1ccccc1)C(=O)N[C@@H](Cc1ccccc1)C(=O)N[C@H](C(=O)O)C(C)C)[C@@H](C)O [SPA12–20] (H-ITMGSLFFV-OH): 9.59

In the following, a different compound is considered.
Returns the measured pIC50 for the input compound. Input: CC(C)C[C@H](NC(=O)CN)C(=O)N[C@@H](C)C(=O)N[C@@H](C)C(=O)N[C@@H](C)C(=O)N[C@H](C(=O)N[C@H](C(=O)N[C@@H](C)C(=O)N[C@H](C(=O)O)C(C)C)C(C)C)C(C)C [SPA82–90] (H-GLAAAVVAV-OH)
7.26

Where do the numbers come from? From paper PMC3014376.
